Molecular target: pY641-STAT6 in PBMC (Homo sapiens)
Construct: Cryopreserved Peripheral Blood Mononuclear Cells (PBMC) are from AllCells; host or cells: cryopreserved PBMC
Sequence (P42226 whole entry): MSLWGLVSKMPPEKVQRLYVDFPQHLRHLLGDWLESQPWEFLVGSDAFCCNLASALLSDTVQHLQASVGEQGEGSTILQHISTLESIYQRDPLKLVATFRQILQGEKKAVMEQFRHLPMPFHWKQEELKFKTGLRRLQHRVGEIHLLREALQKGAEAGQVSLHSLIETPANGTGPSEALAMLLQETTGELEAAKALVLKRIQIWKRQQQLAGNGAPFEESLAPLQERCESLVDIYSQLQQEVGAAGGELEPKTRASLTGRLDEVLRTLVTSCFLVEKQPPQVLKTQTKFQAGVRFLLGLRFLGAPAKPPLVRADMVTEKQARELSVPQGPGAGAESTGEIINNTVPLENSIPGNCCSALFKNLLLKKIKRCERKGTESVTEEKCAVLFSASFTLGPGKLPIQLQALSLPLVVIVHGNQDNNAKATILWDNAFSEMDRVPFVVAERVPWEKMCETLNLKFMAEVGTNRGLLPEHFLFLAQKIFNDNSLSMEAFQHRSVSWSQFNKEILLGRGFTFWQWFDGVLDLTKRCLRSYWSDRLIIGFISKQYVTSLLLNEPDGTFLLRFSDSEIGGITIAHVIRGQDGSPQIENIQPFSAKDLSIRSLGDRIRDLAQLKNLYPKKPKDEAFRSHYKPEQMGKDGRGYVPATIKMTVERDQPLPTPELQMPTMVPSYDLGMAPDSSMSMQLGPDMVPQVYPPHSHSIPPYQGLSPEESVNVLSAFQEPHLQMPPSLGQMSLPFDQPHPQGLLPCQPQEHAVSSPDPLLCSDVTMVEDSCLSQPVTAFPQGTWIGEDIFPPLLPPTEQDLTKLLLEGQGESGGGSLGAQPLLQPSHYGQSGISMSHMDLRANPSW
Experiment: MSD-pSTAT-PBMC Assay (pSTAT6, IL-4 stimulated)
Format: cell-based
Conditions: PBMC, compound 3 hrs, then 1 ng/mL IL-4 for 10 min; Table 1114; read-out: pSTAT6
pIC50: −log10 of the molar value.
Recorded pIC50, one value per entry.

Some entries whose results are on file:
[[record]]
compound = "CCCC(=O)SCCOP(=O)(OCCSC(=O)CCC)C(F)(F)c1ccc2sc(C(=O)NC3CCCC4CCC(C(=O)N5CC(c6cccnc6)C5)N4C3=O)cc2c1 (stereo not drawn) [Compound 179]"
result = "5.52 to 6.00"

[[record]]
compound = "CC(C)(C)C(=O)OCOP(=O)(OCOC(=O)C(C)(C)C)C(F)(F)c1ccc2sc(C(=O)N[C@H]3CCCCC[C@H]4CC[C@@H](C(=O)N5C[C@@H](C#N)[C@H](c6ccccc6)C5)N4C3=O)cc2c1 (relative stereo) [Compound 146]"
result = "> 7.00"

[[record]]
compound = "CC(C)(O)CC(=O)SCCOP(=O)(OCCSC(=O)CC(C)(C)O)C(F)(F)c1ccc2sc(C(=O)N[C@H]3CCCC[C@H]4CC[C@@H](C(=O)N5C[C@@H](C#N)[C@H](c6ccccc6)C5)N4C3=O)cc2c1 (single isomer, unassigned) [Compound 202]"
result = "5.52 to 6.00"

[[record]]
compound = "CC(C)CC(=O)SCCOP(=O)(OCCSC(=O)CC(C)C)C(F)(F)c1ccc2ccc(C(=O)N[C@H]3CCCC[C@H]4CC[C@@H](C(=O)N5C[C@@H](C#N)[C@H](c6cc[nH]c(=O)c6)C5)N4C3=O)cc2c1 (single isomer, unassigned) [Compound 168]"
result = "> 7.00"

[[record]]
compound = "CC(C)CC(=O)SCCOP(=O)(OCCSC(=O)CC(C)C)C(F)(F)c1ccc2sc(C(=O)N[C@H]3CCCC(C)[C@H]4CC[C@@H](C(=O)N5CC(c6cccnc6)C5)N4C3=O)cc2c1 (stereo partly drawn) [Compound 161]"
result = "< 5.52"


Query: Find the recorded pIC50 belonging to CC(C)CC(=O)SCCOP(=O)(OCCSC(=O)CC(C)C)C(F)(F)c1ccc2sc(C(=O)N[C@H]3CCCC[C@H]4CC[C@@H](C(=O)N5C[C@@H](C#N)[C@H](c6cc[nH]c(=O)c6)C5)N4C3=O)cc2c1 (single isomer, unassigned) [Compound 154] and report it.
Result: 6.00 to 7.00

Query: Find the recorded pIC50 belonging to CC(C)(C)C(=O)SCCOP(=O)(OCCSC(=O)C(C)(C)C)C(F)(F)c1ccc2sc(C(=O)N[C@H]3CCCC[C@H]4CC[C@@H](C(=O)N5CC(c6c[nH]cn6)C5)N4C3=O)cc2c1 [Compound 182] and report it.
Result: 5.52 to 6.00

Query: Find the recorded pIC50 belonging to CC(C)CC(=O)SCCOP(=O)(OCCSC(=O)CC(C)C)C(F)(F)c1ccc2sc(C(=O)N[C@H]3C[C@@H](O)CC[C@H]4CC[C@@H](C(=O)N5C[C@@H](C#N)[C@H](c6ccccc6)C5)N4C3=O)cc2c1 (single isomer, unassigned) [Compound 135] and report it.
Result: 6.00 to 7.00

Query: Find the recorded pIC50 belonging to CC(C)CC(=O)SCCOP(=O)(OCCSC(=O)CC(C)C)C(F)(F)c1ccc2sc(C(=O)N[C@H]3CCC[C@H]4CC[C@@H](C(=O)N5CC(c6cccnc6)C5)N4C3=O)cc2c1 [Compound 177] and report it.
Result: 5.52 to 6.00

====

Target: Recombinant STAT6 protein (STAT6 (W123-T658)) (Homo sapiens)
Construct: Recombinant STAT6 protein (STAT6 (W123-T658))
Test: STAT6 Fluorescence Polarization (FP) Assay
Type: binding
Settings: STAT6 (W123-T658) 250 nM, probe 5-FAM-Ap[…]-NH2 2 nM, 45-minute incubation; read-out: STAT6 (FP assay IC50 class)
Metric name: IC50

Some entries whose results are on file:
[[record]]
compound = "O=C(N[C@H]1CCCC[C@H]2CC[C@@H](C(=O)N3CC(c4cccnc4)CC34CC4)N2C1=O)c1ccc2ccc(C(F)P(=O)(O)O)cc2c1 (stereo partly drawn)"
result = "≤ 0.3 µM"

[[record]]
compound = "O=C(N[C@H]1CCC[C@H]2CC[C@@H](C(=O)N3CC(c4cnccc4N4CC(C(F)(F)F)C4)C3)N2C1=O)c1cc2cc(CP(=O)(O)O)ccc2s1"
result = "3 to 30 µM"

[[record]]
compound = "Cn1cc(C2CN(C(=O)[C@@H]3CC[C@@H]4CCC[C@H](NC(=O)c5cc6cc(C(F)(F)P(=O)(O)O)ccc6s5)C(=O)N43)CCO2)cn1 (stereo partly drawn)"
result = "0.3 to 3 µM"

[[record]]
compound = "CCOc1c(F)cncc1C1CN(C(=O)[C@@H]2CC[C@@H]3CCC[C@H](NC(=O)c4cc5cc([C@@H](F)P(=O)(O)O)ccc5s4)C(=O)N32)C1"
result = "3 to 30 µM"

[[record]]
compound = "O=C(N[C@H]1CC[C@H]2CC[C@@H](C(=O)N3CC(c4ccccn4)C3)N2C1=O)c1cc2cc(C(F)(F)P(=O)(O)O)ccc2s1"
result = "3 to 30 µM"


Query: Find the recorded IC50 belonging to COC1(c2cccnc2)CN(C(=O)[C@@H]2CC[C@@H]3CCC[C@H](NC(=O)c4cc5cc(C(F)(F)P(=O)(O)O)ccc5s4)C(=O)N32)C1 and report it.
Result: 0.3 to 3 µM

====

Target: pY641-STAT6 in PBMC (Homo sapiens)
Construct: Cryopreserved Peripheral Blood Mononuclear Cells (PBMC) are from AllCells; host or cells: cryopreserved PBMC
Assay: MSD-pSTAT-PBMC Assay (pSTAT6, IL-4 stimulated)
Assay type: cell-based
Conditions: STAT6, PBMC, compound 3 hrs, then 1 ng/mL IL-4 for 10 min; Table 115
Metric name: IC50

Query: Find the recorded IC50 belonging to CCCOC(=O)[C@H](C)NP(=O)(Oc1ccccc1)C(F)c1ccc2sc(C(=O)N[C@H]3CCCC[C@H]4CC[C@@H](C(=O)N5C[C@H](c6cccnc6OC)[C@@H](C#N)C5)N4C3=O)cc2c1 (relative stereo) and report it.
Result: < 100 nM

Query: Find the recorded IC50 belonging to COCCOC(=O)[C@H](C)NP(=O)(Oc1ccccc1)[C@@H](F)c1ccc2sc(C(=O)N[C@H]3CCCC[C@H]4CC[C@@H](C(=O)N5C[C@@H](c6cccnc6)CC56CC6)N4C3=O)cc2c1 (some centres unmarked) and report it.
Result: < 100 nM

Query: Find the recorded IC50 belonging to CCCOC(=O)[C@H](C)N[P@@](=O)(Oc1ccccc1)[C@@H](F)c1ccc2sc(C(=O)N[C@H]3CCCC[C@H]4CC[C@@H](C(=O)N5C[C@@H](c6cccnc6)CC56CC6)N4C3=O)cc2c1 (single isomer, unassigned) [Compound 461] and report it.
Result: < 100 nM

Query: Find the recorded IC50 belonging to CCCOC(=O)[C@H](C)NP(=O)(Oc1ccccc1)[C@@H](F)c1ccc2sc(C(=O)N[C@H]3CCC[C@H]4CC[C@@H](C(=O)N5C[C@@H](c6ccn(C)c(=O)c6)CC56CC6)N4C3=O)cc2c1 (some centres unmarked) and report it.
Result: < 100 nM

Query: Find the recorded IC50 belonging to CCCOC(=O)[C@H](C)NP(=O)(Cc1ccc2ccc(C(=O)N[C@H]3CCCC[C@H]4CC[C@@H](C(=O)N5C[C@H](c6cc[nH]c(=O)c6)CC56CC6)N4C3=O)cc2c1)Oc1ccccc1 (some centres unmarked) and report it.
Result: 1000 to 3000 nM

====

Target: Recombinant STAT6 protein (STAT6 (W123-T658)) (Homo sapiens, UniProt P42226)
Construct: Recombinant STAT6 protein (STAT6 (W123-T658))
Sequence (P42226 123-658): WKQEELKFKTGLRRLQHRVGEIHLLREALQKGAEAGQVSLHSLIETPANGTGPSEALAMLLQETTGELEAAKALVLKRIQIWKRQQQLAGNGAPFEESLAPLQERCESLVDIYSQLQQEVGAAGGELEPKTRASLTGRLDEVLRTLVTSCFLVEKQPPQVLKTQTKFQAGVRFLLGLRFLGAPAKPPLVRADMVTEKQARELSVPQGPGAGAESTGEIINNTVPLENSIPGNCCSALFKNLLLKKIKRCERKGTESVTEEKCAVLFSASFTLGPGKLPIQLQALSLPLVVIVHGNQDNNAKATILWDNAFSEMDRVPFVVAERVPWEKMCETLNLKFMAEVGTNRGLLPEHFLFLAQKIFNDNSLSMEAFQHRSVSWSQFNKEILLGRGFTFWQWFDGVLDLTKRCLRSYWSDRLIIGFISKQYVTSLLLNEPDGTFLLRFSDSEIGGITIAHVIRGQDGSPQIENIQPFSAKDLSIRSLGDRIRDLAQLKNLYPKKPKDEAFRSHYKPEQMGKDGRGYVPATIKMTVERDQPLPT
Test: STAT6 Fluorescence Polarization (FP) Assay
Assay type: binding
Details: STAT6 (W123-T658) 250 nM, probe 5-FAM-Ap[…]-NH2 2 nM, 45-minute incubation; read-out: STAT6 (FP assay IC50 class)
Description: STAT6 Fluorescence Polarization (FP) Assay An FP assay was developed to determine IC50 values for test substances. […] Reaction components were mixed, and FP was measured after 45-minute incubation at room temperature using a Tecan Spark multimode plate reader. FP signal (mP) was plotted against the log concentration of the test substances and IC50 values were calculated by nonlinear regression analysis using GraphPad Prism software. […]
Recorded IC50, one value per entry.

Some entries whose results are on file:
[[record]]
compound = "COC1CN(c2ccncc2C2CN(C(=O)[C@@H]3CC[C@@H]4C[C@H](C)C[C@H](NC(=O)c5cc6cc(CP(=O)(O)O)ccc6s5)C(=O)N43)C2)C1"
result = "3 to 30 µM"

[[record]]
compound = "N#C[C@H]1[C@H](c2ccccc2)CN(C(=O)[C@@H]2CC[C@@H]3CCCC[C@H](NC(=O)c4cc5cc([C@@H](F)P(=O)(O)O)ccc5s4)C(=O)N32)C12CC2 (single isomer, unassigned)"
result = "≤ 0.3 µM"

[[record]]
compound = "Cc1cc(C#N)cnc1C1CN(C(=O)[C@@H]2CC[C@@H]3CCCC[C@H](NC(=O)c4cc5cc(C(F)(F)P(=O)(O)O)ccc5s4)C(=O)N32)C1"
result = "0.3 to 3 µM"


Query: Param readout = IC50; param system = Recombinant STAT6 protein (STAT6 (W123-T658)) (Homo sapiens, UniProt P42226); param query = O=C(N[C@H]1CCCC[C@H]2CC[C@@H](C(=O)NCc3ccc4nccnc4c3)N2C1=O)c1cc2cc(C(F)(F)P(=O)(O)O)ccc2s1 ; response: value
Result: 0.3 to 3 µM

Query: Param readout = IC50; param system = Recombinant STAT6 protein (STAT6 (W123-T658)) (Homo sapiens, UniProt P42226); param query = O=C(N[C@H]1CCC[C@H]2CC[C@@H](C(=O)N3CC(c4ccnc(O)n4)C3)N2C1=O)c1cc2cc(C(F)P(=O)(O)O)ccc2s1 (some centres unmarked) ; response: value
Result: 3 to 30 µM
